MEASUREMENT NOTES: Quantitative High-Throughput drug screen in 47 multiple myeloma cell lines against the NCATS MIPE library collection: MM1R_ATCC cell viability assay (AID 1918981); further: nearly all actives have a fitted effect of over 35% in size
ASSAY SETUP: MM1R multiple myeloma cells, CellTiter-Glo viability, 48 h; series mostly up to 45.8 µM
Results filed as inconclusive are left out. Calls of active or inactive are those of the source. The call rests on the fitted dose curve; in most records, active means well fitted cell-killing curve with a large enough effect; inconclusive means small, poorly fitted or top-dose-only effect, or effect the other way; inactive means no such curve, though single readings can be large or run the other way.
Please answer using one outcome listed in active, inactive

Some entries whose results are on file:
CC(=O)c1c(C)c2cnc(Nc3ccc(N4CCNCC4)cn3)nc2n(C2CCCC2)c1=O	active
CCN(CC)CCCCNc1ncc2cc(-c3cc(OC)cc(OC)c3)c(NC(=O)NC(C)(C)C)nc2n1	active
Cc1nc(N)ncc1-c1nc(N2CCOCC2)c2sc(C(C)(C)O)cc2n1	active

Then this compound:
# input For CC(C)(O)c1cc2nc(-c3cnc(N)nc3)nc(N3CCOCC3)c2s1 , which call appears in the assay record?
# output active

---

Tested on: NIH3T3
MEASUREMENT NOTES: Cytotoxic Profiling of Annotated Libraries Using Quantitative High-Throughput Screening (AID 1296008); further: nearly all actives have a fitted effect of over 60% in size
ASSAY SETUP: Five cell lines viability, CellTiter-Glo ATP luminescence, 48-72 h
Inconclusive results are not listed. The source made the active and inactive calls. Calls follow the shape of the dose curve; as a rule, active = well fitted inhibition curve with a large enough effect; inconclusive = small, poorly fitted or top-dose-only effect; inactive = flat fitted curve, though single readings scatter.
Mark one answer only. Choices: 1 = active, 0 = inactive

Look over these answered cases.
O=C(C=Cc1cccc(S(=O)(=O)Nc2ccccc2)c1)NO	1
CC(C)C[C@H](NC(=O)CNC(=O)c1cc(Cl)ccc1Cl)B(O)O	1
C=CC(=O)Nc1cc2c(Nc3ccc(F)c(Cl)c3)ncnc2cc1OCCCN1CCOCC1	1

# input Each molecule tested received a call. Report the one for CCc1c2c(nc3ccc(O)cc13)-c1cc3c(c(=O)n1C2)COC(=O)[C@]3(O)CC .
# output 1

---

Tested on: CP325
MEASUREMENT NOTES: qHTS profiling for inhibitors of Plasmodium falciparum proliferation (AID 504749); further: nearly all actives have a fitted effect of over 60% in size
ASSAY SETUP: P. falciparum in erythrocytes, SYBR Green DNA, 72 h; series mostly up to 28.7 µM
Inconclusive results are not listed. Activity calls are given as the source filed them. Calls come from the whole dose curve; as a rule, active = well fitted inhibition curve with a large enough effect; inconclusive = small, poorly fitted or top-dose-only effect; inactive = flat fitted curve, though single readings scatter.
Allowed answers: active, inactive

Check out these entries, answers already filled in.
COc1cc(C(=O)NS(=O)(=O)c2ccccc2C)ccc1Cc1cn(C)c2ccc(NC(=O)OC3CCCC3)cc12	inactive
CC=CC1=C(C(=O)O)N2C(=O)[C@H](NC(=O)[C@H](N)c3ccc(O)cc3)[C@@H]2SC1	inactive

# input Please let me know the test result on file for COC(=O)C[C@](O)(CCCC(C)(C)O)C(=O)O[C@@H]1C(OC)=C[C@]23CCCN2CCc2cc4c(cc2[C@H]13)OCO4 .
# output active

# input How did this test come out for O=c1[nH]c(=O)n(C2CCCO2)cc1F (stereo unspecified) ?
# output inactive

# input Hi team, can someone confirm the assay call for Nc1ccn([C@@H]2CS[C@H](CO)O2)c(=O)n1 ?
# output inactive

# input Hi, do you know how C[C@H]1C[C@@H]2[C@@H]([C@@H](O)C[C@@]3(C)[C@H]2CC[C@]3(O)C(=O)CO)[C@@]2(C)C=CC(=O)C=C12 came out in this test?
# output inactive

---

MEASUREMENT NOTES: qHTS of pediatric cancer cell lines to identify multiple opportunities for drug repurposing: Primary screen for DAOY cells (AID 1347090); further: nearly all actives have a fitted effect of over 55% in size
ASSAY SETUP: DAOY medulloblastoma viability, CellTiter-Glo luminescence, 48 h; series mostly up to 46 µM
Results filed as inconclusive are left out. Calls of active or inactive are those of the source. Calls come from the whole dose curve; as a rule, active = well fitted cell-killing curve with a large enough effect; inconclusive = small, poorly fitted or top-dose-only effect; inactive = flat fitted curve, though single readings scatter.
Output constraint: value belongs to active, inactive

Cn1c2ccccc2c2c3c(c4c5ccccc5n(CCC#N)c4c21)CNC3=O	active
O=C(O)[C@H](Cc1c[nH]c2ccccc12)N1C(=O)c2ccccc2C1=O	inactive
Cc1c(C)n(Cc2ccc(-c3ccccc3C(=O)O)cc2)c2ccc(C(=O)N[C@@H](C)c3ccc([N+](=O)[O-])cc3)cc12	active
Cc1cn2c(-c3cn[nH]c3)cnc2c(Nc2ccc(C(=O)N3CCNCC3)cc2F)n1	active
Cc1cc(Nc2cc(CN3CCOCC3)c3nc(C)c(Cc4ccc(Cl)cc4F)n3n2)n[nH]1	active

Continue with the next compound.
# input What is the recorded call for this compound in the test? C=CC(=O)Nc1cc2c(Nc3ccc(F)c(Cl)c3)ncnc2cc1OCCCN1CCOCC1
# output active
